These data points were gathered from ChEMBL document CHEMBL5537193.

- System: SGC-7901
- assay summary: cells
- test context: Homo sapiens, SGC-7901, 72 h
- Description: Cytotoxicity against human SGC-7901 cells assessed as inhibition of cell growth incubated for 72 hrs by MTT assay
reported metric: IC50 (µM)

In the examples that follow, each entry is paired with its recorded IC50.
COc1cc(OC)c(/C=C/S(=O)(=O)Cc2ccc(OC)c(NCC(=O)Nc3ccccc3N)c2)c(OC)c1 : 4.98
COc1cc(OC)c(/C=C/S(=O)(=O)Cc2ccc(OC)c(NCCCCCC(=O)NO)c2)c(OC)c1 : 4.92

P = COc1cc(OC)c(/C=C/S(=O)(=O)Cc2ccc(OC)c(NCCC(=O)Nc3ccccc3N)c2)c(OC)c1
Q = O=C(CCCCCCC(=O)Nc1ccccc1)NO
R = COc1cc(OC)c(/C=C/S(=O)(=O)Cc2ccc(OC)c(NCCC(=O)NO)c2)c(OC)c1
S = COc1cc(OC)c(/C=C/S(=O)(=O)Cc2ccc(OC)c(NC(=O)CCCC(=O)Nc3ccccc3N)c2)c(OC)c1
Incoming: Descending sort on IC50 required. Give me the labels in the order the question wants.
Outgoing: S, P, R, Q

====

- Test system: PANC-1
- assay summary: Induction of apoptosis in human PANC-1 cells assessed as apoptotic cells at 2 uM incubated for 24 hrs by flow cytometric analysis relative to control
- Type: functional
reported metric: Activity (%)
Express the result in % but write the number alone.

O=C(CCCCCCC(=O)Nc1ccccc1)NO : 20.5
COc1cc(OC)c(/C=C/S(=O)(=O)Cc2ccc(OC)c(NC(=O)CCC(=O)NO)c2)c(OC)c1 : 55.1
COc1cc(OC)c(/C=C/S(=O)(=O)Cc2ccc(OC)c(NCC(=O)O)c2)c(OC)c1 : 41.4

Let us move to another entry and its Activity.
Incoming: Given the compound "COc1cc(OC)c(/C=C/S(=O)(=O)Cc2ccc(OC)c(NCC(=O)NO)c2)c(OC)c1" , what is its reported Activity?
Outgoing: 57.4

====

- assay summary: Metabolic stability in mouse liver microsomes assessed as half-life at 1 uM measured upto 40 mins by LC-MS/MS analysis
- Type: ADME, Microsome
reported metric: half-life at 1 µM (min)

a = COc1cc(OC)c(/C=C/S(=O)(=O)Cc2ccc(OC)c(NC(=O)CCC(=O)NO)c2)c(OC)c1
b = COc1cc(OC)c(/C=C/S(=O)(=O)Cc2ccc(OC)c(NCC(=O)NO)c2)c(OC)c1
Incoming: // select label with min value of measured half-life at 1 µM from [ a , b ] Answer = label.
Outgoing: a
(a: 14.4 min, b: 28.6 min)

====

- assay summary: Metabolic stability in mouse liver microsomes assessed as intrinsic clearance measured upto 40 mins by LC-MS/MS analysis
- Type: ADME, Microsome
- test context: read-out: CLH
reported metric: CLint scaled (mL/min/kg)
Express the result in mL/min/kg but write the number alone.

Incoming: Given the compound O=C(c1ccc(F)cc1)C1CCN(CCn2c(=O)[nH]c3ccccc3c2=O)CC1 [KETANSERIN] , what is its reported CLint scaled?
Outgoing: 265

====

- assay summary: Metabolic stability in rat liver microsomes assessed as intrinsic clearance measured upto 40 mins by LC-MS/MS analysis
- Format: ADME, Microsome
- test context: read-out: CLH
reported metric: CLint scaled (L/h/kg)
Express the result in L/h/kg but write the number alone.

Incoming: Given the molecule "O=C(c1ccc(F)cc1)C1CCN(CCn2c(=O)[nH]c3ccccc3c2=O)CC1" , what is its reported CLint scaled?
Outgoing: 8.45

====

- assay summary: AUC (0 to t) in Sprague-Dawley rat at 15 mg/kg, ip measured after 24 hrs by LC-MS/MS analysis
- Type: ADME, organism-based
- test context: in vivo
reported metric: AUC(0-t) at 24 h (ng·h/mL)
Express the result in ng·h/mL but write the number alone.

Incoming: Given the compound "COc1cc(OC)c(/C=C/S(=O)(=O)Cc2ccc(OC)c(NCC(=O)NO)c2)c(OC)c1" , what is its reported AUC(0-t) at 24 h?
Outgoing: 5190

====

- measurement target: Serine/threonine-protein kinase PLK1 (Homo sapiens, UniProt P53350)
- Sequence (P53350 whole entry): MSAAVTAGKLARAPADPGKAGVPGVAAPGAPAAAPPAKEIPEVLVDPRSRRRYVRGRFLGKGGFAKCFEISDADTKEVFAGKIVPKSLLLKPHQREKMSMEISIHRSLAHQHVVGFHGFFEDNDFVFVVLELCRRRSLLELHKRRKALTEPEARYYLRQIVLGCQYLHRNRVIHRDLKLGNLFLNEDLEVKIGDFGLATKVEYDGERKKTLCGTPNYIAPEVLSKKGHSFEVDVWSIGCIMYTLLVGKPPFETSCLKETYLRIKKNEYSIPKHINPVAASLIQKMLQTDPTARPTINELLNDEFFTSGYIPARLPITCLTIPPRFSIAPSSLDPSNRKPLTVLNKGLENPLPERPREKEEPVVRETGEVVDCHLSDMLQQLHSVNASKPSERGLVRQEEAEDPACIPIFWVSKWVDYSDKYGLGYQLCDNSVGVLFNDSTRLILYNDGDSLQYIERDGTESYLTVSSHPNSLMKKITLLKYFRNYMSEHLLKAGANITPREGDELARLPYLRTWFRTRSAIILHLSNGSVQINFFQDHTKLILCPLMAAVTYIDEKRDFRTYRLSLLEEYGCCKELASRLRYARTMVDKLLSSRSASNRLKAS
reported metric: pIC50
# pIC50 = -log10(concentration in molar units)

Incoming: Given the molecule "O=C(CCCCCCC(=O)Nc1ccccc1)NO" , what is its reported pIC50?
Outgoing: 5.80

====

- assay summary: Cmax in Sprague-Dawley rat at 15 mg/kg, ip measured after 24 hrs by LC-MS/MS analysis
- Assay type: ADME, organism-based
- test context: in vivo
reported metric: Cmax (ng/mL)
Express the result in ng/mL but write the number alone.

Incoming: Given the compound "COc1cc(OC)c(/C=C/S(=O)(=O)Cc2ccc(OC)c(NCC(=O)NO)c2)c(OC)c1" , what is its reported Cmax?
Outgoing: 2800

====

- assay summary: Metabolic stability in mouse liver microsomes assessed as intrinsic clearance at 1 uM measured upto 40 mins by LC-MS/MS analysis
- Format: ADME, Microsome
- test context: read-out: CLH
reported metric: CLint scaled at 1 µM (mL/min/kg)

a = COc1cc(OC)c(/C=C/S(=O)(=O)Cc2ccc(OC)c(NCC(=O)NO)c2)c(OC)c1
b = COc1cc(OC)c(/C=C/S(=O)(=O)Cc2ccc(OC)c(NC(=O)CCC(=O)NO)c2)c(OC)c1
Incoming: // select label with min value of measured CLint scaled at 1 µM from [ a , b ] Answer = label.
Outgoing: a

====

- assay summary: Metabolic stability in rat liver microsomes assessed as half-life measured upto 40 mins by LC-MS/MS analysis
- Assay type: ADME, Microsome
reported metric: half-life (min)
Express the result in min but write the number alone.

Incoming: Given the compound "O=C(c1ccc(F)cc1)C1CCN(CCn2c(=O)[nH]c3ccccc3c2=O)CC1" , what is its reported half-life?
Outgoing: 17.6

====

- assay summary: Metabolic stability in mouse liver microsomes assessed as half-life measured upto 40 mins by LC-MS/MS analysis
- Assay type: ADME, Microsome
reported metric: half-life (min)
Express the result in min but write the number alone.

Incoming: Given the compound "O=C(c1ccc(F)cc1)C1CCN(CCn2c(=O)[nH]c3ccccc3c2=O)CC1" , what is its reported half-life?
Outgoing: 20.6

====

- Tested on: SGC-7901
- assay summary: cells
- test context: Homo sapiens, SGC-7901, 72 h
reported metric: IC50 (µM)

COc1cc(OC)c(/C=C/S(=O)(=O)Cc2ccc(OC)c(NC(=O)CCC(=O)Nc3ccccc3N)c2)c(OC)c1 : 6.6
COc1cc(OC)c(/C=C/S(=O)(=O)Cc2ccc(OC)c(NC(=O)CCCC(=O)NO)c2)c(OC)c1 : 1.87
COc1cc(OC)c(/C=C/S(=O)(=O)Cc2ccc(OC)c(NC(=O)CCCCC(=O)NO)c2)c(OC)c1 : 12.3
COc1cc(OC)c(/C=C/S(=O)(=O)Cc2ccc(OC)c(NC(=O)CCC(=O)NO)c2)c(OC)c1 : 0.26

I = COc1cc(OC)c(/C=C/S(=O)(=O)Cc2ccc(OC)c(NC(=O)CCCCC(=O)Nc3ccccc3N)c2)c(OC)c1
II = COc1cc(OC)c(/C=C/S(=O)(=O)Cc2ccc(OC)c(NCCCCCC(=O)Nc3ccccc3N)c2)c(OC)c1
III = COc1cc(OC)c(/C=C/S(=O)(=O)Cc2ccc(OC)c(NCC(=O)NO)c2)c(OC)c1
Incoming: Ascending by IC50, please. Give me the labels in the order the question wants.
Outgoing: III, II, I
(III: 0.17 µM, II: 8.89 µM, I: 17.2 µM)

====

- assay summary: MRT (0 to t) in Sprague-Dawley rat at 15 mg/kg, ip measured after 24 hrs by LC-MS/MS analysis
- Type: ADME, organism-based
- test context: in vivo
reported metric: MRT last at 24 h (h)
Express the result in h but write the number alone.

Incoming: Given the compound "COc1cc(OC)c(/C=C/S(=O)(=O)Cc2ccc(OC)c(NCC(=O)NO)c2)c(OC)c1" , what is its reported MRT last at 24 h?
Outgoing: 1.34

====

- measurement target: UniProt Q9UKV0
- Sequence (Q9UKV0 whole entry): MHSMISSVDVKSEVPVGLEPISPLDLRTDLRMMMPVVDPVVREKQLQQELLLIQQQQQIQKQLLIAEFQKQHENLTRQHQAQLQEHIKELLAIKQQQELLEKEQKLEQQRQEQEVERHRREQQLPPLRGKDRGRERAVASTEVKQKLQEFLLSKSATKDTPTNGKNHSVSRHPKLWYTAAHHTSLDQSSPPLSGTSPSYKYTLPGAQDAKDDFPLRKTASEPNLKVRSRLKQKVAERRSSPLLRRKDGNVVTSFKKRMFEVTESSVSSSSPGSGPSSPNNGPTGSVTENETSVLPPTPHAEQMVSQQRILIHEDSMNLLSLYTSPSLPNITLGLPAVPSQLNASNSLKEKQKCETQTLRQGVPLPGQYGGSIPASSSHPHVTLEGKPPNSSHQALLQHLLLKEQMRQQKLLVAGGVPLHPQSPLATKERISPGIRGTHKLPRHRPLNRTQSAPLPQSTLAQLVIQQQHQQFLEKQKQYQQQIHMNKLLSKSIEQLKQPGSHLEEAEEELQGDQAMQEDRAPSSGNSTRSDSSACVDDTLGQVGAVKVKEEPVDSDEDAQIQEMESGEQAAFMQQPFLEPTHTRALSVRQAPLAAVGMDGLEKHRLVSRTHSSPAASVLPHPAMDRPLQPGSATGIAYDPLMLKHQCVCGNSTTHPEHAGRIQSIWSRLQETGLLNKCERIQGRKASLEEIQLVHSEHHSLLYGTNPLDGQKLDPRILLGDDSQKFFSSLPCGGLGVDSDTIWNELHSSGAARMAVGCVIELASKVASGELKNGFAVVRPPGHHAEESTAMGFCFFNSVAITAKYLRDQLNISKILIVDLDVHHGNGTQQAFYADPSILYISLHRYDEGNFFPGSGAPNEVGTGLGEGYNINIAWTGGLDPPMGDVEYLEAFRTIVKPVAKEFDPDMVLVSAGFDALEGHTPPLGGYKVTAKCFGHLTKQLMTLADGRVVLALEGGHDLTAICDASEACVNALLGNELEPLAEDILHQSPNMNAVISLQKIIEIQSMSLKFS
reported metric: IC50 (nM)

COc1cc(OC)c(/C=C/S(=O)(=O)Cc2ccc(OC)c(NCC(=O)NO)c2)c(OC)c1 : 83.7
COc1cc(OC)c(/C=C/S(=O)(=O)Cc2ccc(OC)c(NC(=O)CCC(=O)NO)c2)c(OC)c1 : 91.3

====

- assay summary: Elimination rate constant in Sprague-Dawley rat at 15 mg/kg, ip measured after 24 hrs by LC-MS/MS analysis
- Assay type: ADME, organism-based
- test context: in vivo
reported metric: k el at 24 h (s⁻¹)
Express the result in s⁻¹ but write the number alone.

Incoming: Given the compound "COc1cc(OC)c(/C=C/S(=O)(=O)Cc2ccc(OC)c(NCC(=O)NO)c2)c(OC)c1" , what is its reported k el at 24 h?
Outgoing: 0.000252

====

- assay summary: Metabolic stability in human liver microsomes assessed as intrinsic clearance measured upto 40 mins by LC-MS/MS analysis
- Type: ADME, Microsome
- test context: read-out: CLH
reported metric: CLint scaled (mL/min/kg)
Express the result in mL/min/kg but write the number alone.

Incoming: Given the compound "O=C(c1ccc(F)cc1)C1CCN(CCn2c(=O)[nH]c3ccccc3c2=O)CC1" , what is its reported CLint scaled?
Outgoing: 47.5
